All figures here come from paper PMC8504577.

- procedure_summary: Hepatobiliary transport study in rats
- Type: in vivo, Sprague-Dawley rats
- condition_notes: Sprague-Dawley, rat, liver, iv, 5 mg/kg, i.v. RSV 5 mg/kg, without DDI, read-out: Liver Tmax (converted)
quantity_name: Tmax

Recorded Tmax (molecule CC(C)c1nc(N(C)S(C)(=O)=O)nc(-c2ccc(F)cc2)c1/C=C/[C@@H](O)C[C@@H](O)CC(=O)O ): 2 min

====

- procedure_summary: Hepatobiliary transport study in rats
- Format: in vivo, Sprague-Dawley rats
- condition_notes: Sprague-Dawley, rat, plasma, iv, 5 mg/kg, i.v. RSV 5 mg/kg, without DDI, read-out: Plasma Tmax (converted)
quantity_name: Tmax (s)
Only the number, expressed in s, is required.

Per the record, CC(C)c1nc(N(C)S(C)(=O)=O)nc(-c2ccc(F)cc2)c1/C=C/[C@@H](O)C[C@@H](O)CC(=O)O [RSV, rosuvastatin] has Tmax of 18.6
